Data origin: paper PMC9231303

test details: clinical
assay conditions: human, in vivo, 1000 mg, Cmax, subject S4
observation type: Cmax (ng/mL)
Field: numeric (ng/mL). Do not append units.

So what's the measured Cmax for this one? `CN(C)C(=N)N=C(N)N`
1430

====

test details: clinical
assay conditions: male, human, in vivo, Ke
observation type: k el (s⁻¹)
Field: numeric (s⁻¹). Do not append units.

So what's the measured k el for this one? `CN(C)C(=N)N=C(N)N`
3.97e-05
